Tested on: Mus musculus
Test: Neuroleptic activity in STD-ddy mouse assessed as inhibition of locomotion at 100 mg/kg, po measured for 3 mins
Assay type: functional
Settings: 0.05 h
Each entry below carries its recorded inhibition in vivo at 100 mg/kg.
assay metric: inhibition in vivo at 100 mg/kg (%)

{"molecule": "Cc1ccc2c(c1)[C@H]1CN(CCO)CC[C@H]1N2 (relative stereo)", "target system": "Mus musculus", "endpoint result": 30.7}
{"molecule": "Cc1ccc2c(c1)[C@H]1CN(CCCN3c4ccccc4Sc4cc(Cl)ccc43)CC[C@H]1N2.Cl (relative stereo)", "target system": "Mus musculus", "endpoint result": 96.9}
{"molecule": "Cc1ccc2c(c1)[C@H]1CN(CCCC(=O)c3ccc(F)cc3)CC[C@@H]1N2.Cl (relative stereo)", "target system": "Mus musculus", "endpoint result": 86.5}
{"molecule": "CCc1ccc2c(c1)[C@H]1CN(CCCC(=O)c3ccc(F)cc3)CC[C@H]1N2.Cl (relative stereo)", "target system": "Mus musculus", "endpoint result": 44}
{"molecule": "CC(=O)CCN1CC[C@@H]2Nc3ccc(C)cc3[C@H]2C1 (relative stereo)", "target system": "Mus musculus", "endpoint result": -15.5}
{"molecule": "Cc1ccc2c(c1)[C@H]1CN(C)CC[C@H]1N2 (relative stereo)", "target system": "Mus musculus", "endpoint result": 37.6}
{"molecule": "Cc1ccc2c(c1)[C@H]1CN(CCO)CC[C@@H]1N2 (relative stereo)", "target system": "Mus musculus", "endpoint result": -5.6}
{"molecule": "Cc1ccc2c(c1)[C@H]1CN(CCCC(=O)c3ccc(F)cc3)CC[C@H]1N2.Cl (relative stereo)", "target system": "Mus musculus", "endpoint result": 97.8}
{"molecule": "CCN1c2ccc(C)cc2[C@H]2CN(CCCC(=O)c3ccc(F)cc3)CC[C@H]21.Cl (relative stereo)", "target system": "Mus musculus", "endpoint result": 92.9}
{"molecule": "Cc1ccc2c(c1)[C@H]1CN(Cc3ccccc3)CC[C@H]1N2 (relative stereo)", "target system": "Mus musculus", "endpoint result": 35.3}
{"molecule": "Cc1ccc2c(c1)[C@H]1CN(CCCC(c3ccc(F)cc3)c3ccc(F)cc3)CC[C@H]1N2 (relative stereo)", "target system": "Mus musculus", "endpoint result": 90.7}
{"molecule": "Cc1ccc2c(c1)[C@H]1CN(CC(=O)c3ccccc3)CC[C@H]1N2 (relative stereo)", "target system": "Mus musculus", "endpoint result": 29.8}

###

Tested on: Mus musculus
Experiment: Neuroleptic activity in STD-ddy mouse assessed as inhibition of locomotion at 100 mg/kg, po measured for 3 mins
Format: functional
Conditions: 0.05 h
assay metric: inhibition in vivo at 100 mg/kg

{"compound": "Cc1ccc2c(c1)[C@H]1CN(CCCC(=O)c3ccc(F)cc3)CC[C@@H]1N2C.O=C(O)/C=C\\C(=O)O (relative stereo)", "target system": "Mus musculus", "assay metric": "inhibition in vivo at 100 mg/kg", "endpoint result": "97.4%"}
{"compound": "Fc1ccc2c(c1)[C@H]1CN(Cc3ccccc3)CC[C@@H]1N2 (relative stereo)", "target system": "Mus musculus", "assay metric": "inhibition in vivo at 100 mg/kg", "endpoint result": "76.1%"}
{"compound": "CC(=O)CCN1CC[C@H]2Nc3ccc(C)cc3[C@H]2C1 (relative stereo)", "target system": "Mus musculus", "assay metric": "inhibition in vivo at 100 mg/kg", "endpoint result": "38.8%"}
{"compound": "Cc1ccc2c(c1)[C@H]1CN(CCCC(=O)c3ccc(F)cc3)CC[C@H]1N2C.Cl (relative stereo)", "target system": "Mus musculus", "assay metric": "inhibition in vivo at 100 mg/kg", "endpoint result": "95.8%"}
{"compound": "Cc1ccc2c(c1)[C@H]1CN(CCCN(C)C)CC[C@H]1N2 (relative stereo)", "target system": "Mus musculus", "assay metric": "inhibition in vivo at 100 mg/kg", "endpoint result": "12.3%"}
{"compound": "Cl.O=C(CCCN1CC[C@H]2Nc3ccccc3[C@H]2C1)c1ccc(F)cc1 (relative stereo)", "target system": "Mus musculus", "assay metric": "inhibition in vivo at 100 mg/kg", "endpoint result": "77.7%"}
{"compound": "COc1ccc2c(c1)[C@H]1CN(CCCC(=O)c3ccc(F)cc3)CC[C@H]1N2.Cl (relative stereo)", "target system": "Mus musculus", "assay metric": "inhibition in vivo at 100 mg/kg", "endpoint result": "96.7%"}

###

Tested on: Rattus norvegicus
Assay: Neuroleptic activity in Wistar HLA rat assessed as inhibition of methamphetamine-induced stereotyped behavior at 1 mg/kg, ip administered 20 mins before methamphetamine challenge measured every 30 mins for 3 hrs followed by every 1 hr for further 3 hrs
Type: functional
Parameters: scale not given: the % may be the effect or the level left
Conditions: route intraperitoneal
assay metric: Activity (%)

{"compound": "Cl.O=C(CCCN1CC[C@H]2Nc3ccc(F)cc3[C@H]2C1)c1ccc(F)cc1 (relative stereo)", "endpoint result": 0}
{"compound": "CCN1c2ccc(C)cc2[C@H]2CN(CCCC(=O)c3ccc(F)cc3)CC[C@H]21.Cl (relative stereo)", "endpoint result": 0}
{"compound": "Cc1ccc2[nH]c3c(c2c1)CN(CCCC(=O)c1ccc(F)cc1)CC3.Cl", "endpoint result": 0}

###

Test system: Rattus norvegicus
Assay: Neuroleptic activity in Wistar HLA rat assessed as inhibition of methamphetamine-induced stereotyped behavior at 10 mg/kg, ip administered 20 mins before methamphetamine challenge measured every 30 mins for 3 hrs followed by every 1 hr for further 3 hrs
Format: functional
Details: Rattus norvegicus, Wistar HLA, ip, route intraperitoneal
Each entry below carries its recorded inhibition in vivo at 10 mg/kg.
assay metric: inhibition in vivo at 10 mg/kg (%)

{"molecule": "COc1ccc2c(c1)[C@H]1CN(CCCC(=O)c3ccc(F)cc3)CC[C@H]1N2.Cl (relative stereo)", "target system": "Rattus norvegicus", "assay metric": "inhibition in vivo at 10 mg/kg", "units symbol": "%", "result modifier": "=", "endpoint result": 25}
{"molecule": "CN(C)CCCN1c2ccccc2Sc2ccc(Cl)cc21", "target system": "Rattus norvegicus", "assay metric": "inhibition in vivo at 10 mg/kg", "units symbol": "%", "result modifier": ">", "endpoint result": 75}
{"molecule": "Cl.O=C(CCCN1CC[C@H]2Nc3ccccc3[C@H]2C1)c1ccc(F)cc1 (relative stereo)", "target system": "Rattus norvegicus", "assay metric": "inhibition in vivo at 10 mg/kg", "units symbol": "%", "result modifier": "=", "endpoint result": 25}
{"molecule": "Cl.O=C(CCCN1CC[C@H]2Nc3ccc(F)cc3[C@H]2C1)c1ccc(F)cc1 (relative stereo)", "target system": "Rattus norvegicus", "assay metric": "inhibition in vivo at 10 mg/kg", "units symbol": "%", "result modifier": "=", "endpoint result": 50}
{"molecule": "Cc1ccc2c(c1)[C@H]1CN(CCCC(=O)c3ccc(F)cc3)CC[C@@H]1N2.Cl (relative stereo)", "target system": "Rattus norvegicus", "assay metric": "inhibition in vivo at 10 mg/kg", "units symbol": "%", "result modifier": ">", "endpoint result": 75}
